Origin of the recorded values: patent US20070232563A1

# key: entry, value: Judgment score of biological activity
# System: colbicula (Corbicula leana)
# test method notes: Biological activity of corbicula (aqueduct extension score) in aqueous mineral solutions
# Assay type: in vivo
# condition summary: mineral concentration 0; saccharide 1 w/v %; total of 18 shellfishes, 16 h
Please reply with the value in numeric form only.

Completed entries (count: 2):
compound	Judgment score of biological activity
OC[C@H]1O[C@H](O[C@H]2[C@H](O)[C@@H](O)C(O)O[C@@H]2CO)[C@H](O)[C@@H](O)[C@@H]1O (mixture of isomers)	51
OC[C@H]1O[C@H](O[C@H]2[C@H](O)[C@@H](O)[C@@H](O[C@H]3[C@H](O)[C@@H](O)[C@@H](O[C@H]4[C@H](O)[C@@H](O)C(O)O[C@@H]4CO)O[C@@H]3CO)O[C@@H]2CO)[C@H](O)[C@@H](O)[C@@H]1O (stereo partly drawn)	51

Turning to the following compound.
**Q:** Query for colbicula (Corbicula leana): what Judgment score of biological activity does the record show for OC[C@H]1O[C@H](O[C@H]2O[C@H](CO)[C@@H](O)[C@H](O)[C@H]2O)[C@H](O)[C@@H](O)[C@@H]1O ?
**A:** 54
